test system: Murine peritoneal macrophages (PMΦ); assay: Macrophage activation assay: LPS/IFNγ-induced inflammatory cytokine expression (ELISA, Luminex); assay type: cell-based, mouse; conditions: chemerin 1 pM + protease inhibitor 1 h, then LPS/IFNγ 15 h
Non-standard residues stand in square brackets, D forms with d. Residues, ends and D or L forms follow the SMILES beside them. *: point of attachment. Sta = CC(C)C[C@H](N)[C@@H](O)CC(=O)O; Isovaleryl = CC(C)CC(=O)*
Reported property: Effect of protease inhibitor on chemerin-mediated suppression of MΦ activation (FIG. 1F)

[
  {
    "Molecule": "Cl.NCCc1ccc(S(=O)(=O)F)cc1 [Pefabloc, reference compound]",
    "Target": "Murine peritoneal macrophages (PMΦ)",
    "Observed measurement": "exerted no effect"
  },
  {
    "Molecule": "CC(C)CC(=O)N[C@H](C(=O)N[C@H](C(=O)N[C@@H](CC(C)C)[C@@H](O)CC(=O)N[C@@H](C)C(=O)N[C@@H](CC(C)C)[C@@H](O)CC(=O)O)C(C)C)C(C)C [Pepstatin A, reference compound] (Isovaleryl-VV[Sta]A[Sta]-OH)",
    "Target": "Murine peritoneal macrophages (PMΦ)",
    "Observed measurement": "exerted no effect"
  }
]
